Hi there, I'd appreciate the recorded melting point for every entry that follows.
A number alone suffices; assume °C.

[ask] Fill in: melting point of CN1CCN(CCOc2cccc3c2c2cccc4c2n3C(c2ccccc2)CO4)CC1 (stereo not shown) [Example 14] is ___
[reply] 57

[ask] Entry CC(C)(C)OC(=O)N1CCN(CCOc2cccc3c2c2cccc4c2n3C(c2ccccc2)CO4)CC1 (stereo not shown) [Example 12] : reported melting point = ?
[reply] 72

[ask] Given the compound CCNCCOc1cccc2c1c1cccc3c1n2C(c1ccccc1)CO3.O=C(O)/C=C\C(=O)O (stereo not shown) [Example 6] , what is its reported melting point?
[reply] 105

[ask] Query (compound): c1ccc(C2COc3cccc4c5c(OCCN6CCNCC6)cccc5n2c34)cc1 (stereo not shown) [Example 13] ; field requested: melting point
[reply] 72

[ask] For the compound CS(=O)(=O)O.NCCOc1cccc2c1c1cccc3c1n2[C@H](c1ccccc1)CO3 [Example 2] , what melting point is on record?
[reply] 236
